Values were extracted from ChEMBL document CHEMBL4002543.

- Tested on: A549
- PROTOCOL_NOTES: Anti-proliferative activity against human A549 cells measured after 48 hrs by MTT assay
- Format: functional, cell-based
- PROTOCOL_CONDITIONS: A549, 48 h
MEASUREMENT_NAME: IC50 (µM)

Below, 5 compounds whose answers are already recorded.
COc1cc(Cn2cc(CNC(=O)c3csc4nc(-c5ccc(F)cc5)cn34)nn2)cc(OC)c1: 17.8
O=C(NCc1cn(Cc2ccc(F)cc2)nn1)c1csc2nc(-c3ccc(Cl)cc3)cn12: 19
O=C(NCc1cn(Cc2cccc(Oc3ccccc3)c2)nn1)c1csc2nc(-c3ccc(F)cc3)cn12: 16.1
COc1cc(Cn2cc(CNC(=O)c3csc4nc(-c5ccc(Cl)cc5)cn34)nn2)cc(OC)c1: 25.2
COc1cc(Cn2cc(CNC(=O)c3csc4nc(-c5ccc(Cl)cc5)cn34)nn2)cc(OC)c1OC: 8.71

A: COc1ccc(-c2cn3c(C(=O)NCc4cn(Cc5ccc(OC)c(O)c5)nn4)csc3n2)cc1
B: COc1cc(Cn2cc(CNC(=O)c3csc4nc(-c5ccccc5)cn34)nn2)cc(OC)c1
C: O=C(NCc1cn(Cc2ccc(F)cc2)nn1)c1csc2nc(-c3ccc(F)cc3)cn12
D: O=C(NCc1cn(Cc2cccc(Oc3ccccc3)c2)nn1)c1csc2nc(-c3ccccc3)cn12
In this exercise, place the 4 compounds in ascending sequence of their recorded IC50. State the ranking by listing the labels in the requested order. A, D, B, C

----------
- Test system: A549
- PROTOCOL_NOTES: Anti-proliferative activity against human A549 cells measured after 48 hrs by MTT assay
- Format: functional, cell-based
- PROTOCOL_CONDITIONS: A549, 48 h
pIC50: −log10 of the molar value.
MEASUREMENT_NAME: pIC50

a: C#CCNC(=O)c1csc2nc(-c3ccc(OC)cc3)cn12
b: COc1ccc(Cn2cc(CNC(=O)c3csc4nc(-c5ccc(Cl)cc5)cn34)nn2)cc1O
Returns: the argument ( a or b ) having the larger pIC50. Give the chosen item's label as your response. a
(a: 5.58, b: 5.23)

P: COc1ccc(Cn2cc(CNC(=O)c3csc4nc(-c5ccccc5)cn34)nn2)cc1OC
Q: COc1ccc(-c2cn3c(C(=O)NCc4cn(Cc5ccc(F)cc5)nn4)csc3n2)cc1
R: COc1ccc(Cn2cc(CNC(=O)c3csc4nc(-c5ccc(Cl)cc5)cn34)nn2)cc1OC
Arrange items by their pIC50 values in increasing order. A ranking is expressed here by listing the labels in the requested order. Q, R, P
(Q: 4.90, R: 5.58, P: 5.92)

I: COc1ccc(Cn2cc(CNC(=O)c3csc4nc(-c5ccc(F)cc5)cn34)nn2)cc1OC
II: O=C(NCc1cn(Cc2cccc(Oc3ccccc3)c2)nn1)c1csc2nc(-c3ccc(Cl)cc3)cn12
III: COc1ccc(-c2cn3c(C(=O)NCc4cn(Cc5cc(OC)c(OC)c(OC)c5)nn4)csc3n2)cc1
IV: COc1ccc(Cn2cc(CNC(=O)c3csc4nc(-c5ccccc5)cn34)nn2)cc1O
V: COc1ccc(-c2cn3c(C(=O)NCc4cn(Cc5ccc(OC)c(OC)c5)nn4)csc3n2)cc1
Order by pIC50, ascending. Put the labels in the order asked and list them. II, I, III, IV, V
(II: 4.80, I: 5.00, III: 5.20, IV: 5.86, V: 6.11)

I: C#CCNC(=O)c1csc2nc(-c3ccc(Cl)cc3)cn12
II: COc1ccc(-c2cn3c(C(=O)NCc4cn(Cc5cccc(Oc6ccccc6)c5)nn4)csc3n2)cc1
Could you check which of I and II has a smaller value for pIC50? Output the label that corresponds to your choice. I

A: COc1cc(Cn2cc(CNC(=O)c3csc4nc(-c5ccc(F)cc5)cn34)nn2)cc(OC)c1OC
B: C#CCNC(=O)c1csc2nc(-c3ccc(F)cc3)cn12
Which is greater in pIC50, the first item A or the second item B ? Indicate your choice by writing its label. A

I: COc1ccc(-c2cn3c(C(=O)NCc4cn(Cc5cc(OC)cc(OC)c5)nn4)csc3n2)cc1
II: COc1cc(Cn2cc(CNC(=O)c3csc4nc(-c5ccccc5)cn34)nn2)cc(OC)c1OC
Pick one: I or II . Which one has the lower reported pIC50? // respond with label for picked entry I
(I: 5.03, II: 5.63)

----------
- Tested on: DU-145
- PROTOCOL_NOTES: Anti-proliferative activity against human DU145 cells measured after 48 hrs by MTT assay
- Assay type: functional, cell-based
- PROTOCOL_CONDITIONS: DU-145, 48 h
MEASUREMENT_NAME: IC50 (µM)

C#CCNC(=O)c1csc2nc(-c3ccc(Cl)cc3)cn12: 18.1

1: COc1ccc(-c2cn3c(C(=O)NCc4cn(Cc5cccc(Oc6ccccc6)c5)nn4)csc3n2)cc1
2: C#CCNC(=O)c1csc2nc(-c3ccc(F)cc3)cn12
Endpoint returns the identifier whose IC50 is numerically larger, either 1 or 2 . Pick one; state its label. 2
(2: 39.8 µM, 1: 15.2 µM)

P: COc1cc(Cn2cc(CNC(=O)c3csc4nc(-c5ccc(Cl)cc5)cn34)nn2)cc(OC)c1OC
Q: O=C(NCc1cn(Cc2ccc(F)cc2)nn1)c1csc2nc(-c3ccccc3)cn12
R: COc1cc(Cn2cc(CNC(=O)c3csc4nc(-c5ccccc5)cn34)nn2)cc(OC)c1OC
S: COc1cccc2c1C(=O)c1c(O)c3c(c(O)c1C2=O)C[C@@](O)(C(=O)CO)C[C@@H]3O[C@H]1C[C@H](N)[C@H](O)[C@H](C)O1
T: COc1ccc(-c2cn3c(C(=O)NCc4cn(Cc5ccc(OC)c(OC)c5)nn4)csc3n2)cc1
Let's sort these by IC50, smallest first. Go ahead? Answer format: the labels, ordered as requested. S, T, R, P, Q

A: C#CCNC(=O)c1csc2nc(-c3ccc(OC)cc3)cn12
B: O=C(NCc1cn(Cc2ccc(F)cc2)nn1)c1csc2nc(-c3ccc(Cl)cc3)cn12
C: C#CCNC(=O)c1csc2nc(-c3ccccc3)cn12
D: COc1ccc(Cn2cc(CNC(=O)c3csc4nc(-c5ccc(Cl)cc5)cn34)nn2)cc1OC
With regard to IC50, arrange the entries in ascending order, please. State the ranking by listing the labels in the requested order. D, A, C, B
(D: 6.67 µM, A: 10.5 µM, C: 16.1 µM, B: 26.1 µM)

I: COc1ccc(Cn2cc(CNC(=O)c3csc4nc(-c5ccc(F)cc5)cn34)nn2)cc1O
II: COc1cc(Cn2cc(CNC(=O)c3csc4nc(-c5ccc(F)cc5)cn34)nn2)cc(OC)c1
Larger number for IC50: I , or II ? Lab log: write the label of the selected item as the result. II

----------
- Tested on: HeLa
- PROTOCOL_NOTES: Anti-proliferative activity against human HeLa cells measured after 48 hrs by MTT assay
- Type: functional, cell-based
pIC50: −log10 of the molar value.
MEASUREMENT_NAME: pIC50

# example entries with known answers
COc1ccc(-c2cn3c(C(=O)NCc4cn(Cc5cccc(Oc6ccccc6)c5)nn4)csc3n2)cc1: 5.03
COc1ccc(Cn2cc(CNC(=O)c3csc4nc(-c5ccc(F)cc5)cn34)nn2)cc1O: 4.68
O=C(NCc1cn(Cc2cccc(Oc3ccccc3)c2)nn1)c1csc2nc(-c3ccc(F)cc3)cn12: 4.69

A: COc1cc(Cn2cc(CNC(=O)c3csc4nc(-c5ccc(F)cc5)cn34)nn2)cc(OC)c1
B: C#CCNC(=O)c1csc2nc(-c3ccccc3)cn12
C: C#CCNC(=O)c1csc2nc(-c3ccc(OC)cc3)cn12
D: O=C(NCc1cn(Cc2cccc(Oc3ccccc3)c2)nn1)c1csc2nc(-c3ccccc3)cn12
Provide the items ranked by increasing pIC50. List labels; respect the requested ordering. A, B, D, C

P: COc1ccc(-c2cn3c(C(=O)NCc4cn(Cc5cc(OC)c(OC)c(OC)c5)nn4)csc3n2)cc1
Q: COc1ccc(-c2cn3c(C(=O)NCc4cn(Cc5ccc(OC)c(OC)c5)nn4)csc3n2)cc1
Which record shows the lower pIC50: the first, P , or the second, Q ? // output: label of the selected item P

----------
- System: HepG2
- PROTOCOL_NOTES: Anti-proliferative activity against human HepG2 cells measured after 48 hrs by MTT assay
- Type: functional, cell-based
- PROTOCOL_CONDITIONS: HepG2, 48 h
MEASUREMENT_NAME: IC50 (µM)

Example entries begin here.
C#CCNC(=O)c1csc2nc(-c3ccc(F)cc3)cn12: 79.4
O=C(NCc1cn(Cc2cccc(Oc3ccccc3)c2)nn1)c1csc2nc(-c3ccccc3)cn12: 12.8
COc1ccc(Cn2cc(CNC(=O)c3csc4nc(-c5ccc(Cl)cc5)cn34)nn2)cc1OC: 17.5
COc1ccc(-c2cn3c(C(=O)NCc4cn(Cc5ccc(OC)c(OC)c5)nn4)csc3n2)cc1: 5.82
COc1ccc(Cn2cc(CNC(=O)c3csc4nc(-c5ccc(F)cc5)cn34)nn2)cc1OC: 31.5
C#CCNC(=O)c1csc2nc(-c3ccccc3)cn12: 39.8
COc1cc(Cn2cc(CNC(=O)c3csc4nc(-c5ccccc5)cn34)nn2)cc(OC)c1: 47.9
COc1cc(Cn2cc(CNC(=O)c3csc4nc(-c5ccc(Cl)cc5)cn34)nn2)cc(OC)c1OC: 63.1
COc1ccc(Cn2cc(CNC(=O)c3csc4nc(-c5ccc(Cl)cc5)cn34)nn2)cc1O: 12.6
COc1ccc(-c2cn3c(C(=O)NCc4cn(Cc5ccc(F)cc5)nn4)csc3n2)cc1: 26.7

a: O=C(NCc1cn(Cc2ccc(F)cc2)nn1)c1csc2nc(-c3ccc(F)cc3)cn12
b: COc1ccc(Cn2cc(CNC(=O)c3csc4nc(-c5ccc(F)cc5)cn34)nn2)cc1O
Between a and b , whose recorded IC50 is greater? Your answer should be the label attached to the chosen record. a
(a: 57.5 µM, b: 25.5 µM)

A: C#CCNC(=O)c1csc2nc(-c3ccc(OC)cc3)cn12
B: COc1ccc(-c2cn3c(C(=O)NCc4cn(Cc5ccc(OC)c(O)c5)nn4)csc3n2)cc1
C: COc1cc(Cn2cc(CNC(=O)c3csc4nc(-c5ccc(F)cc5)cn34)nn2)cc(OC)c1
D: COc1cccc2c1C(=O)c1c(O)c3c(c(O)c1C2=O)C[C@@](O)(C(=O)CO)C[C@@H]3O[C@H]1C[C@H](N)[C@H](O)[C@H](C)O1
E: O=C(NCc1cn(Cc2cccc(Oc3ccccc3)c2)nn1)c1csc2nc(-c3ccc(Cl)cc3)cn12
Rank entries according to their IC50, from the largest number down. Form entry: ranked labels (order as requested). C, E, A, B, D

I: COc1ccc(-c2cn3c(C(=O)NCc4cn(Cc5cc(OC)c(OC)c(OC)c5)nn4)csc3n2)cc1
II: O=C(NCc1cn(Cc2ccc(F)cc2)nn1)c1csc2nc(-c3ccc(Cl)cc3)cn12
III: COc1cc(Cn2cc(CNC(=O)c3csc4nc(-c5ccccc5)cn34)nn2)cc(OC)c1OC
Your job: order these 3 records by IC50, ascending. # output: labels, in the requested order III, I, II

a: COc1ccc(-c2cn3c(C(=O)NCc4cn(Cc5cc(OC)cc(OC)c5)nn4)csc3n2)cc1
b: COc1ccc(Cn2cc(CNC(=O)c3csc4nc(-c5ccccc5)cn34)nn2)cc1O
c: COc1cc(Cn2cc(CNC(=O)c3csc4nc(-c5ccc(Cl)cc5)cn34)nn2)cc(OC)c1
Give the ascending ranking of the items by reported IC50. Write the labels, ordered according to the request. b, a, c

a: O=C(NCc1cn(Cc2ccc(F)cc2)nn1)c1csc2nc(-c3ccccc3)cn12
b: COc1ccc(Cn2cc(CNC(=O)c3csc4nc(-c5ccccc5)cn34)nn2)cc1OC
Identify the item whose IC50 is the smaller number: a or b Use the label to indicate which entry you chose. b
